# testMethodNotes: Comparative acute toxicity (LD50), rats
# conditionNotes: rat, in vivo, sc, female, 2-week observation
Give measured LD50 at 336 h for each item. Keep answers brief.
Numbers only, in mg/kg.

Respectfully, I request LD50 at 336 h for each entry included below.
1. CCCC1O[C@@H]2C[C@H]3[C@@H]4CCC5=CC(=O)C=C[C@]5(C)[C@H]4[C@@H](O)C[C@]3(C)[C@]2(C(=O)CO)O1 (stereo partly drawn) [Budesonide, reference compound]
2. CCCC1O[C@@H]2C=C3[C@@H]4CCC5=CC(=O)C=C[C@]5(C)[C@H]4[C@@H](O)C[C@]3(C)[C@]2(C(=O)CO)O1 (stereo partly drawn) [Ex. No. 2]
3. CC(C)C1O[C@@H]2C=C3[C@@H]4CCC5=CC(=O)C=C[C@]5(C)[C@H]4[C@@H](O)C[C@]3(C)[C@]2(C(=O)CO)O1 (stereo partly drawn) [Ex. No. 6]

[71.5, 843, 164]

====

# testMethodNotes: Comparative acute toxicity (LD50), rats
# conditionNotes: rat, in vivo, sc, male, 2-week observation
experimentalEndpoint: LD50 at 336 h (mg/kg)
One number for each entry, in mg/kg.

{"molecule": "CCCC1O[C@@H]2C[C@H]3[C@@H]4CCC5=CC(=O)C=C[C@]5(C)[C@H]4[C@@H](O)C[C@]3(C)[C@]2(C(=O)CO)O1 (stereo partly drawn) [Budesonide, reference compound]", "LD50 at 336 h / mg/kg": 59.4}
{"molecule": "CCCC1O[C@@H]2C=C3[C@@H]4CCC5=CC(=O)C=C[C@]5(C)[C@H]4[C@@H](O)C[C@]3(C)[C@]2(C(=O)CO)O1 (stereo partly drawn) [Ex. No. 2]", "LD50 at 336 h / mg/kg": 1210}

Next item in the queue.
Any idea what LD50 at 336 h was measured for CC(C)C1O[C@@H]2C=C3[C@@H]4CCC5=CC(=O)C=C[C@]5(C)[C@H]4[C@@H](O)C[C@]3(C)[C@]2(C(=O)CO)O1 (stereo partly drawn) [Ex. No. 6] ?
162

====

# testMethodNotes: Comparative acute toxicity (LD50), mice
# conditionNotes: mouse, in vivo, po, male, 2-week observation
Assign LD50 at 336 h to each entry below.
Answers are plain numbers, in mg/kg.

{"molecule": "CCCC1O[C@@H]2C[C@H]3[C@@H]4CCC5=CC(=O)C=C[C@]5(C)[C@H]4[C@@H](O)C[C@]3(C)[C@]2(C(=O)CO)O1 (stereo partly drawn) [Budesonide, reference compound]", "assayValue": 1080}

Consider now this further molecule.
So what does the record say about LD50 at 336 h for CC(C)C1O[C@@H]2C=C3[C@@H]4CCC5=CC(=O)C=C[C@]5(C)[C@H]4[C@@H](O)C[C@]3(C)[C@]2(C(=O)CO)O1 (stereo partly drawn) ?
2930

====

# testMethodNotes: Comparative acute toxicity (LD50), mice
# conditionNotes: mouse, in vivo, sc, male, 2-week observation
Would you kindly list LD50 at 336 h for each of these compounds?
One number for each entry, in mg/kg.

Example compounds with recorded LD50 at 336 h:
{"compound": "CCCC1O[C@@H]2C=C3[C@@H]4CCC5=CC(=O)C=C[C@]5(C)[C@H]4[C@@H](O)C[C@]3(C)[C@]2(C(=O)CO)O1 (stereo partly drawn)", "LD50 at 336 h [mg/kg]": 585}
{"compound": "CCCC1O[C@@H]2C[C@H]3[C@@H]4CCC5=CC(=O)C=C[C@]5(C)[C@H]4[C@@H](O)C[C@]3(C)[C@]2(C(=O)CO)O1 (stereo partly drawn) [Budesonide, reference compound]", "LD50 at 336 h [mg/kg]": 131}

Continue with the compound presented below.
Value lookup for LD50 at 336 h; key = CC(C)C1O[C@@H]2C=C3[C@@H]4CCC5=CC(=O)C=C[C@]5(C)[C@H]4[C@@H](O)C[C@]3(C)[C@]2(C(=O)CO)O1 (stereo partly drawn)
333

====

# testMethodNotes: Comparative acute toxicity (LD50), rats
# conditionNotes: rat, in vivo, po, male, 2-week observation
experimentalEndpoint: LD50 at 336 h

{"compound": "CCCC1O[C@@H]2C[C@H]3[C@@H]4CCC5=CC(=O)C=C[C@]5(C)[C@H]4[C@@H](O)C[C@]3(C)[C@]2(C(=O)CO)O1 (stereo partly drawn) [Budesonide, reference compound]", "LD50 at 336 h": "3400 mg/kg"}

List LD50 at 336 h for every entry below, keeping the order given.
1. CCCC1O[C@@H]2C=C3[C@@H]4CCC5=CC(=O)C=C[C@]5(C)[C@H]4[C@@H](O)C[C@]3(C)[C@]2(C(=O)CO)O1 (stereo partly drawn)
2. CC(C)C1O[C@@H]2C=C3[C@@H]4CCC5=CC(=O)C=C[C@]5(C)[C@H]4[C@@H](O)C[C@]3(C)[C@]2(C(=O)CO)O1 (stereo partly drawn)

1: > 4000 mg/kg; 2: > 4000 mg/kg

====

# testMethodNotes: Comparative acute toxicity (LD50), mice
# conditionNotes: mouse, in vivo, po, female, 2-week observation
experimentalEndpoint: LD50 at 336 h (mg/kg)
Answers are plain numbers, in mg/kg.

{"molecule": "CCCC1O[C@@H]2C[C@H]3[C@@H]4CCC5=CC(=O)C=C[C@]5(C)[C@H]4[C@@H](O)C[C@]3(C)[C@]2(C(=O)CO)O1 (stereo partly drawn) [Budesonide, reference compound]", "unitLabel": "mg/kg", "assayValue": 1360}

Let us examine a further case.
Can you look up the measured LD50 at 336 h of CC(C)C1O[C@@H]2C=C3[C@@H]4CCC5=CC(=O)C=C[C@]5(C)[C@H]4[C@@H](O)C[C@]3(C)[C@]2(C(=O)CO)O1 (stereo partly drawn) [Ex. No. 6] for me?
2790

====

# testMethodNotes: Comparative acute toxicity (LD50), rats
# conditionNotes: rat, in vivo, po, female, 2-week observation
# Protocol: 1) Comparative study on the acute toxicity Animal groups consisting of 10 CFLP mice or RG Hann Wistar rats each of both sexes were used. The doses causing the death of 50% of the animals (LD50 values) within a 2-week observation period following subcutaneous (s.c.) or oral (p.o.) administration were determined.
experimentalEndpoint: LD50 at 336 h

Here are 2 molecules together with their reported answers.
{"molecule": "CCCC1O[C@@H]2C[C@H]3[C@@H]4CCC5=CC(=O)C=C[C@]5(C)[C@H]4[C@@H](O)C[C@]3(C)[C@]2(C(=O)CO)O1 (stereo partly drawn) [Budesonide, reference compound]", "assayValue": "2110 mg/kg"}
{"molecule": "CCCC1O[C@@H]2C=C3[C@@H]4CCC5=CC(=O)C=C[C@]5(C)[C@H]4[C@@H](O)C[C@]3(C)[C@]2(C(=O)CO)O1 (stereo partly drawn)", "assayValue": "> 3000 mg/kg"}

Shifting focus to the molecule that follows.
Consider the molecule CC(C)C1O[C@@H]2C=C3[C@@H]4CCC5=CC(=O)C=C[C@]5(C)[C@H]4[C@@H](O)C[C@]3(C)[C@]2(C(=O)CO)O1 (stereo partly drawn) and give its measured LD50 at 336 h.
> 3000 mg/kg
